molecular target: T1, human CD3 complex, native, on CD3-positive human T cells (human, UniProt P07766 23-207; P09693 23-182; P04234 22-171); assay: conclusion from ELISA (FIGS. 14 and 15) and flow cytometry on Jurkat cells
T1 construct: whole, on cells; Presented as part of the TCR/CD3 complex on Jurkat cells (flow cytometry) and on the CD4-positive T cell clone CB15 (cytotoxicity assays); also called CD3 on Jurkat cells; CD3+ Jurkat cells
T1 sequence (P07766 23-207, chain 1 of 3): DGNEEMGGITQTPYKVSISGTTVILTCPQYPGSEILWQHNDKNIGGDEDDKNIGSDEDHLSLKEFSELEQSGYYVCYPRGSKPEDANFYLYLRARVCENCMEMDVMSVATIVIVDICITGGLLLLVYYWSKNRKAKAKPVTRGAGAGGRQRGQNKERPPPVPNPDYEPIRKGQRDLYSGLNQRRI
T1 sequence (P09693 23-182, chain 2 of 3): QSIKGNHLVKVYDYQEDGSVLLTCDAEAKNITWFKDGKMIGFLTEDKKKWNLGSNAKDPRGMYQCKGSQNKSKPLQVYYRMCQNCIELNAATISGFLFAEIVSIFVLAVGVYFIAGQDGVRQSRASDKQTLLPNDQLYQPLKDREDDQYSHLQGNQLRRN
T1 sequence (P04234 22-171, chain 3 of 3): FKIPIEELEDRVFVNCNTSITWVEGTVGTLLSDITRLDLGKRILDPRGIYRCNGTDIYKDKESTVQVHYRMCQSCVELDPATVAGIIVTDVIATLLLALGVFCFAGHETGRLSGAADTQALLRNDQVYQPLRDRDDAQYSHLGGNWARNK

BINDER: human anti-human CD3 scFv 3-114 (FLAG-tagged) (scFv, VH-(G4S1)3-VL scFv from huLIB-ST, tested as crude periplasmic preparation) scFv: ELQLVESGGGLVKPGRSLRLSCTASGFTFGDYAMSWFRQAPGKGLEWVGFIRSKAYGGTTEYAASVKGRFTISRDDSKSIAYLQMNSLKTEDTAVYYCTPQLWLLQDAFDIWGQGTMVTVSSGGGGSGGGGSGGGGSELQMTQSPSSLSASVGDRVTITCRASQGISNYLAWYQQKPGKVPKLLIYAASTLQSGVPSRFSGSGSGTDFTLTISSLQPEDFATYYCQQSYSTPPTFGQGTKLEIKTGDYKDDDDK
binding result: binds
